- target.or.system: T1, EphA2 SAM domain K956D (human, UniProt P29317 897-976, K956D)
- T1 sequence (looked up): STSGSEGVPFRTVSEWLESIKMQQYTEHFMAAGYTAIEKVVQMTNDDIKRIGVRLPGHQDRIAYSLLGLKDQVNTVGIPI
- assay.name: ITC
Below, each of the binders is paired with its reported Kd value.

binder	Kd
SHIP2 SAM domain D1235K (domain or fragment, human, UniProt O15357 1192-1258, looked up) RASGLGEAGMSAWLRAIGLERYEEGLVHNGWDDLEFLSDITEEKLEEAGVQDPAHKRLLLDTLQLSK	7 µM

Now look at this one.
For the binder SHIP2 SAM domain (wild type) (domain or fragment, human, UniProt O15357 1192-1258, looked up) RASGLGEAGMSAWLRAIGLERYEEGLVHNGWDDLEFLSDITEEDLEEAGVQDPAHKRLLLDTLQLSK , report Kd. > 50 µM
